Catalogue of inhibition at 10 µM readings, one per entry.
- target: Cif (Pseudomonas aeruginosa (strain UCBPP-PA14), UniProt A0A0H2ZD27)
- Sequence (A0A0H2ZD27 25-319 limits assumed): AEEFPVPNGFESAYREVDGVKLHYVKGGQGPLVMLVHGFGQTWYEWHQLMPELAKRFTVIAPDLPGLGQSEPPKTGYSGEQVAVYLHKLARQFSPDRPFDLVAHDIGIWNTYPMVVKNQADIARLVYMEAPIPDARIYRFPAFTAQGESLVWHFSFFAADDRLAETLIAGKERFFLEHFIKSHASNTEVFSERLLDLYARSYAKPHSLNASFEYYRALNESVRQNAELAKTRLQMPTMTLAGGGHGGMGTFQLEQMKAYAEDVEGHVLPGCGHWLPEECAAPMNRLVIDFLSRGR
- assayMethodText: Primary high throughput screen with fluorogenic substrate CMNGC;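 further: fluorescence of 200 µL reactions in 96-well plates read on a plate reader, inhibitor at tenfold molar excess over Cif enzyme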
- Assay type: biochemical
- studyConditions: primary screen; test compounds at 10 μM, 1 μM Cif, 25 μM CMNGC, 60 minutes
Counter-ions that a name gives are not always drawn.
measureName: inhibition at 10 µM (%)

[
  {
    "molecule": "C[C@H]1O[C@H](O[C@H]2[C@H](O)[C@@H](O)[C@@H](O[C@H]3[C@H](O)[C@@H](O)C(O)O[C@@H]3CO)O[C@@H]2CO)[C@H](O)[C@@H](O)[C@@H]1N[C@H]1C=C(CO)[C@@H](O)[C@H](O)[C@H]1O (stereo partly shown)",
    "outputUnit": "%",
    "reportedValue": 47
  },
  {
    "molecule": "O=C(CCCN1CCN(c2ccccn2)CC1)c1ccc(F)cc1",
    "outputUnit": "%",
    "reportedValue": 79
  },
  {
    "molecule": "CCCCCCCCCCCCCCOS(=O)(=O)O [Sodium tetradecyl sulfate]",
    "outputUnit": "%",
    "reportedValue": 78
  },
  {
    "molecule": "CC(C(=O)O)c1cccc(C(=O)c2ccccc2)c1 (stereo not shown)",
    "outputUnit": "%",
    "reportedValue": 34
  },
  {
    "molecule": "CN(C)CCOc1ccc(/C(=C(/CCCl)c2ccccc2)c2ccccc2)cc1 [Toremiphene citrate]",
    "outputUnit": "%",
    "reportedValue": 31
  },
  {
    "molecule": "Cc1c(Nc2ncccc2C(=O)O)cccc1C(F)(F)F",
    "outputUnit": "%",
    "reportedValue": 32
  },
  {
    "molecule": "Cc1cccc(Nc2ccccc2C(=O)O)c1C",
    "outputUnit": "%",
    "reportedValue": 48
  },
  {
    "molecule": "O=C(CCCCCCC(=O)Nc1ccccc1)NO",
    "outputUnit": "%",
    "reportedValue": 35
  },
  {
    "molecule": "CC1=NN(c2ccccc2)C(=O)C1",
    "outputUnit": "%",
    "reportedValue": 43
  },
  {
    "molecule": "Nc1ccc(S(=O)(=O)Nc2ncccn2)cc1",
    "outputUnit": "%",
    "reportedValue": 42
  }
]

###

Catalogue of % Inhibition, Mean ± SD readings, one per entry.
- target: Cif (Pseudomonas aeruginosa (strain UCBPP-PA14))
- assayMethodText: Secondary screen (sextuplicate) with fluorogenic substrate CMNGC;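 further: purified enzyme assay in 96-well plates, 200 µL volume, fluorescence recorded each minute across a 60 min reaction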
- Type: biochemical
- studyConditions: secondary screen, 10 μM, mean of six plates

[
  {
    "compound": "C[C@@H]1C[C@H]2[C@@H]3CCC4=CC(=O)C=C[C@]4(C)[C@@]3(F)[C@@H](O)C[C@]2(C)[C@H]1C(=O)CO [Desoxymetasone]",
    "% Inhibition, Mean ± SD (%)": 39
  },
  {
    "compound": "CC(O)CN1CCN(CC(=O)[O-])CCN(CC(=O)[O-])CCN(CC(=O)[O-])CC1.[Gd+3] (centres unmarked) [Gadoteridol]",
    "% Inhibition, Mean ± SD (%)": 11
  },
  {
    "compound": "CCCCCCCCCCCCCCCC[N+](C)(C)C.[Br-] [Cetrimonium bromide]",
    "% Inhibition, Mean ± SD (%)": 2
  },
  {
    "compound": "CC(=O)[C@@]12O[C@](C)(c3ccccc3)O[C@@H]1C[C@H]1[C@@H]3CCC4=CC(=O)CC[C@]4(C)[C@H]3CC[C@@]12C [Algestone acetophenide]",
    "% Inhibition, Mean ± SD (%)": "−3"
  },
  {
    "compound": "CC(=O)[C@H]1CC[C@H]2[C@@H]3CC=C4C[C@@H](OC(=O)CCC(=O)O)CC[C@]4(C)[C@H]3CC[C@]12C [Pregnenolone succinate]",
    "% Inhibition, Mean ± SD (%)": 12
  }
]
